# assay-system: mGluR5 (Homo sapiens)
# Sequence (P41594 21-1212): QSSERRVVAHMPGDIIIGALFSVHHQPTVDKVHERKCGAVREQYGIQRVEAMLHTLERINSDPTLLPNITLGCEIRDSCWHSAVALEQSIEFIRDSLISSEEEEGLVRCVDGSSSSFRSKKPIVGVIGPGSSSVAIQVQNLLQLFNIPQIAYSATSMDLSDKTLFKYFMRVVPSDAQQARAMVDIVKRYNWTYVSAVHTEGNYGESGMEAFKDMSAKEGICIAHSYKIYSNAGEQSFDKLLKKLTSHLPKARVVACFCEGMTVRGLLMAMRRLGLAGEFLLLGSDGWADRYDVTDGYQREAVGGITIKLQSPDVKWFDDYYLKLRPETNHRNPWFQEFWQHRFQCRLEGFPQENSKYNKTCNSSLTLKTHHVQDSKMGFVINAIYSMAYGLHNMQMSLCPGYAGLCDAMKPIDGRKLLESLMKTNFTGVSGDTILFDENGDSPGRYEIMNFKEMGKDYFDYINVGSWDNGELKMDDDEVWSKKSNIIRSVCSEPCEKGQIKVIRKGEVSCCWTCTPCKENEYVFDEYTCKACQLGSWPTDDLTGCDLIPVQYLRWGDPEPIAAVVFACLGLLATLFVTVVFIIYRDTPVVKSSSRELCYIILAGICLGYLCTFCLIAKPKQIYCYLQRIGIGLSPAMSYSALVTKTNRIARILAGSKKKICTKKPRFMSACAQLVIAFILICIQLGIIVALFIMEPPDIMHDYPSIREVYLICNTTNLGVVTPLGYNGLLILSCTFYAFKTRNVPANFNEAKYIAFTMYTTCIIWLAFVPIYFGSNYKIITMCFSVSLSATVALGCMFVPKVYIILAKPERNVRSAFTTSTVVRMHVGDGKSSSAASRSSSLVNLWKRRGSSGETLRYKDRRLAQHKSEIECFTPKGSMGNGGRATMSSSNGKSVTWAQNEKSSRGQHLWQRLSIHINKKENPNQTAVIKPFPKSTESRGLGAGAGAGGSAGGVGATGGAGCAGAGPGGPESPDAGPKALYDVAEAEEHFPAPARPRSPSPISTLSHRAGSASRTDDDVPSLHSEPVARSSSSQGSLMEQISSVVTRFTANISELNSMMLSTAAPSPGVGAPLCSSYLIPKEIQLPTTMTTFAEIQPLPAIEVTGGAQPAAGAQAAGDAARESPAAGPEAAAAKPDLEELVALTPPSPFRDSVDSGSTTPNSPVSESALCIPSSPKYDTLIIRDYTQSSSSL
# experiment-notes: mGluR5 positive allosteric modulator (PAM) functional assay
pEC50: −log10 of the molar value.
value-type: pEC50

# example entries with known answers
>>> assay_value("CCC(CC)c1nc(-c2ccc(C#Cc3ccccn3)nc2)no1 [Compound 87]")
"≥ 7.52"
>>> assay_value("CCC(C)c1nc(-c2ccc(C#Cc3ccccn3)nc2)no1 (stereo not drawn) [Compound 86]")
"7.00 to 7.52"
>>> assay_value("COC(C)c1nc(-c2ccc(C#Cc3cccc(F)c3)cn2)no1 (stereo not drawn) [Compound 96]")
"≥ 7.52"

We next turn to a different molecule, shown below.
Request: For the molecule CN1C[C@@H](F)C[C@@H]1c1nc(-c2ccc(C#Cc3ccccn3)cn2)no1 [Compound 156] , what pEC50 is on record?
Result: 6.00 to 6.52
